Tested on: MDA-MB-231 (ER−)
Test: MTT growth inhibition assay, MDA-MB-231 breast cancer cells
Assay type: cell-based
Conditions: Homo sapiens, MDA-MB-231, 192 h, Table 2 (repeat run with additional compounds), 8 days
Each entry below carries its recorded pIC50.
# pIC50: negative log10 of molar concentration; output just the value

Use the examples below as a reference point.
Cc1cc(C)c2c(c1)O[C@H](c1cc(O)c(O)c(O)c1)[C@H](OC(=O)c1cc(O)c(O)c(O)c1)C2; 4.27
COc1cc(OC)c2c(c1)OC(c1cc(O)c(O)c(O)c1)[C@H](OC(=O)c1cc(O)c(O)c(O)c1)C2 (stereo partly shown); 4.45
COc1cc(OC)c2c(c1)O[C@H](c1cc(O)c(O)c(O)c1)[C@H](OC(=O)c1cc(C)c(O)c(C)c1)C2; 4.65

Ask | May I ask what pIC50 has been recorded for Cc1cc(C)c2c(c1)OC(c1cc(O)c(O)c(O)c1)[C@H](OC(=O)c1cc(O)c(O)c(O)c1)C2 (stereo partly shown) ?
Reply | 4.59
